Here the recorded Emax at 10 µM is given for each entry.
# experimentalSystem: recombinant α1β2γ2 GABAA receptors (Homo sapiens, UniProt P14867+P47870)
# Construct: expressed in transfected cells
# Sequence (P14867 28-456): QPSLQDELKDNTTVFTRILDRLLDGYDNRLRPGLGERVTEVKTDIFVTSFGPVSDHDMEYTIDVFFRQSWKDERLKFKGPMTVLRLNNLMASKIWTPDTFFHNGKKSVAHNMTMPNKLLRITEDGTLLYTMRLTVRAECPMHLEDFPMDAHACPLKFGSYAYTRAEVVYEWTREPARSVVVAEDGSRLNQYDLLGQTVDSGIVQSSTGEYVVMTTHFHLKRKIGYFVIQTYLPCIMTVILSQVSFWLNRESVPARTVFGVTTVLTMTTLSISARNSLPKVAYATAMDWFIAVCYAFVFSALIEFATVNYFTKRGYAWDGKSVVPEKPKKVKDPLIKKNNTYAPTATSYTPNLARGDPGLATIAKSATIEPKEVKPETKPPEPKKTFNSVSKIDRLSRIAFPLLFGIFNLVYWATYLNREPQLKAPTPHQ
# Sequence (P47870 25-512 limits assumed): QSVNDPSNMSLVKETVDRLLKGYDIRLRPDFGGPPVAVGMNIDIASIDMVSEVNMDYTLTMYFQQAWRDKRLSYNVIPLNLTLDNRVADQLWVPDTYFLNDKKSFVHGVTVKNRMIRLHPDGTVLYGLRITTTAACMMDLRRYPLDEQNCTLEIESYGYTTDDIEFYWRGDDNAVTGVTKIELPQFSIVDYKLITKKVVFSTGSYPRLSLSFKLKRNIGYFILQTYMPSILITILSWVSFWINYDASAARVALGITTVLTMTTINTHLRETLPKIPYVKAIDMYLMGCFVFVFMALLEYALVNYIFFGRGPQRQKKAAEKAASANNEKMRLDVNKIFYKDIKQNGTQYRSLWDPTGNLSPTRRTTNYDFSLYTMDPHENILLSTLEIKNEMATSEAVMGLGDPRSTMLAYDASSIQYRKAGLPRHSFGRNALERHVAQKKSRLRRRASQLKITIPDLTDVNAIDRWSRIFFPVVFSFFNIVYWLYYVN
# Sequence (P18507 40-475 partner): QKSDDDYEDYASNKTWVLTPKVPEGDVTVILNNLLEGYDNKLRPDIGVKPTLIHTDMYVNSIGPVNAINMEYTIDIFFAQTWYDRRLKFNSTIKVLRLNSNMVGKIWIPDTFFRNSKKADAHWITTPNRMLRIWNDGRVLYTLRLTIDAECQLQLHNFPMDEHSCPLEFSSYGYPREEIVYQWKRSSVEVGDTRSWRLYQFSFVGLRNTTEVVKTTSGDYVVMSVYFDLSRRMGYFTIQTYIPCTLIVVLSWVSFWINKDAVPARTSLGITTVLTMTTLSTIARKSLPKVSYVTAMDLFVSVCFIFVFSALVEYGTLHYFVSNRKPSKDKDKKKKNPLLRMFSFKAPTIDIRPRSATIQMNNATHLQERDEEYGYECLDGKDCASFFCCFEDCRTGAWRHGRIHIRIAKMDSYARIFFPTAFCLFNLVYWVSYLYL
# protocol: Patch clamp electrophysiology, QPatch, LTK cells
# Format: cell-based
# conditionParameters: 10 μM test article, GABA EC20 = 2 μM, read-out: GABA (α1β2γ2) Qpatch in Ltk, % efficacy at 10 μM

Known results for compounds:
Lab note: measured Emax at 10 µM of C[C@@]1(O)CC[C@@H]2[C@H]3CC[C@]4(C)[C@@H](C(=O)Cn5ccnn5)CC[C@H]4[C@@H]3C[C@@H](F)[C@H]2C1 [SV-1] was 100 to 500%

The compound identified as CO[C@@H]1C[C@@H]2[C@H](CC[C@]3(C)[C@@H](C(=O)Cn4ccnn4)CC[C@@H]23)[C@H]2CC[C@@](C)(O)C[C@H]21 [SL-1] registered its Emax at 10 µM at 10 to 100%

Continuing:
Emax at 10 µM measured on Cc1nnn(CC(=O)[C@H]2CC[C@H]3[C@@H]4CC[C@@H]5C[C@@](O)(C(F)F)CC[C@@H]5[C@H]4CC[C@]23C)n1 [SG-4] = 100 to 500%

Emax at 10 µM measured on CCOC[C@@]1(O)CC[C@H]2[C@@H](CC[C@@H]3[C@@H]2CC[C@]2(C)[C@@H](C(=O)Cn4cnnn4)CC[C@@H]32)C1 [SQ-4] = 100 to 500%

Note to self: Emax at 10 µM recorded for C[C@@]1(O)CC[C@@H]2[C@H]3CC[C@]4(C)[C@@H](C(=O)Cn5nccn5)CC[C@H]4[C@@H]3C[C@@H](F)[C@@H]2C1 [SH-2] was 100 to 500%

Kindly note the recorded Emax at 10 µM for CC[C@@]1(O)CC[C@H]2[C@@H](CC[C@@H]3[C@@H]2CC[C@]2(C)[C@@H](C(=O)Cn4nnc(C)n4)CC[C@@H]32)C1 [SP-5] , which is 100 to 500%

----------
# experimentalSystem: [35S]-TBPS binding, rat brain cortical membranes (GABA receptor complex)
# protocol: [35S]-TBPS binding (steroid inhibition of TBPS binding)
# conditionParameters: in the presence of 5 μM GABA, read-out: 35S-TBPS Radioligand Displacement
pIC50: −log10 of the molar value.
Reported pIC50 values follow for various compounds

Short answer on [35S]-TBPS binding, rat brain cortical membranes (GABA receptor complex) for C[C@H]1C[C@H]2[C@@H](CC[C@@H]3[C@@H]2CC[C@]2(C)[C@@H](C(=O)Cn4ccnn4)CC[C@@H]32)C[C@]1(C)O , pIC50: 7.00 to 7.30

Entry C[C@@]1(O)CC[C@H]2[C@@H](CC[C@@H]3[C@@H]2CC[C@]2(C)[C@@H](C(=O)Cn4cnnn4)CC[C@@H]32)C1 : pIC50 on [35S]-TBPS binding, rat brain cortical membranes (GABA receptor complex) = 6.30 to 7.00

Measured pIC50 ([35S]-TBPS binding, rat brain cortical membranes (GABA receptor complex)), entry C[C@@]1(O)CC[C@H]2[C@@H](CC[C@@H]3[C@@H]2CC[C@]2(C)[C@@H](C(=O)Cn4cncn4)CC[C@@H]32)C1 : 6.30 to 7.00

Here CO[C@H]1C[C@H]2[C@@H](CC[C@@H]3[C@@H]2CC[C@]2(C)[C@@H](C(=O)Cn4nccn4)CC[C@@H]32)C[C@]1(C)O was tested on [35S]-TBPS binding, rat brain cortical membranes (GABA receptor complex), and its pIC50 came to 7.00 to 7.30

Measured pIC50 for this entry C[C@@]1(O)CC[C@H]2[C@H](CC[C@@H]3[C@@H]2CC[C@]2(C)[C@@H](C(=O)Cn4cnnn4)CC[C@@H]32)C1 on [35S]-TBPS binding, rat brain cortical membranes (GABA receptor complex): 7.00 to 7.30

New cases:
For COC[C@@]1(O)CC[C@H]2[C@H](CC[C@@H]3[C@@H]2CC[C@]2(C)[C@@H](C(=O)Cn4ccnn4)CC[C@@H]32)C1 on [35S]-TBPS binding, rat brain cortical membranes (GABA receptor complex), measured pIC50 was 6.30 to 7.00

Considering C[C@]12CC[C@H]3[C@@H](CC[C@@H]4C[C@@](O)(C(F)F)CC[C@@H]43)[C@@H]1CC[C@@H]2C(=O)Cn1ccnn1 , its pIC50 with [35S]-TBPS binding, rat brain cortical membranes (GABA receptor complex) was recorded as 6.30 to 7.00

pIC50 value, target or system [35S]-TBPS binding, rat brain cortical membranes (GABA receptor complex), for C[C@]12CC[C@H]3[C@@H](CC[C@H]4C[C@@](O)(CF)CC[C@@H]43)[C@@H]1CC[C@@H]2C(=O)Cn1ccnn1 : < 6.30

Tested on [35S]-TBPS binding, rat brain cortical membranes (GABA receptor complex): C[C@H]1C[C@H]2[C@@H](CC[C@@H]3[C@@H]2CC[C@]2(C)[C@@H](C(=O)Cn4nccn4)CC[C@@H]32)C[C@]1(C)O . Observed pIC50: 7.00 to 7.30

The value of pIC50 recorded for CCO[C@H]1C[C@H]2[C@@H](CC[C@@H]3[C@@H]2CC[C@]2(C)[C@@H](C(=O)Cn4ccnn4)CC[C@@H]32)C[C@]1(C)O when tested on [35S]-TBPS binding, rat brain cortical membranes (GABA receptor complex) reads 6.30 to 7.00
